FYI, the data here is from paper PMC8151276.

I'd appreciate it if you could supply NanoBRET Fold Response values for the items below.
Biological target: FPR3 (Homo sapiens, UniProt P25089)
Construct: purchased Promega (in-house HiBiT-GPCR construct library, NanoBRET)
Sequence (P25089 whole entry): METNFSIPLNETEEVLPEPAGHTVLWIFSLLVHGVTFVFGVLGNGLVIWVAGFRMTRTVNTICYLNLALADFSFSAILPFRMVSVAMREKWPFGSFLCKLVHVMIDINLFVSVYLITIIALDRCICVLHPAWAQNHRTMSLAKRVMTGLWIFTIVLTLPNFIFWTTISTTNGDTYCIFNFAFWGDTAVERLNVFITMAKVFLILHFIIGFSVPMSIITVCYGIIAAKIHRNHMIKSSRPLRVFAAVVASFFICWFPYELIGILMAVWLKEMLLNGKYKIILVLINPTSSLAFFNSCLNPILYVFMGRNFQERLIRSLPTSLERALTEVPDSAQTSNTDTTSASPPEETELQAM
Assay: NanoBRET screen HiBiT-FPR3 in HEK293
Type: binding
Settings: FPR3; tracer 0.1μM
// no unit string in output, number only

Task: Need NanoBRET Fold Response, item O=C(CCc1ccc2n1[B-](F)(F)[N+]1=C(c3ccc[nH]3)C=CC1=C2)NCCOCCOCCNC(=O)OCCOCCN1CCN(C2=Nc3ccccc3Sc3ccccc32)CC1
Result: 1.28

Task: Return reported NanoBRET Fold Response; argument: CC(C)N(CC[C@H](c1ccccc1)c1cc(CCNC(=O)c2ccc(CNC(=O)CCc3ccc4n3[B-](F)(F)[N+]3=C(c5ccc[nH]5)C=CC3=C4)cc2)ccc1O)C(C)C
Result: 0.71

Task: Look up NanoBRET Fold Response: Cc1cc2c(s1)Nc1ccccc1N=C2N1CCN(CCCNC(=O)CCOCCOCCOCCOCCNC(=O)CCc2ccc3n2[B-](F)(F)[N+]2=C(c4ccc[nH]4)C=CC2=C3)CC1
Result: 0.92
